# system-under-test: recombinant human Mcl-1 (residues 171-327) / Bim interaction (Homo sapiens (Human), UniProt Q07820)
# Sequence (Q07820 171-327): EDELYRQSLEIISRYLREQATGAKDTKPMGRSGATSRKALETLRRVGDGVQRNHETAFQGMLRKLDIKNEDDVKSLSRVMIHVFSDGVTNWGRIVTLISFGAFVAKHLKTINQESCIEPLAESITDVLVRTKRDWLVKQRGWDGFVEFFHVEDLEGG
# protocol: biochemical
# Assay type: binding
# run-conditions: TR-FRET, Mcl-1(171-327) / biotin-Bim (51-76); read-out: Mcl-1 HTRF IC50
Let's look at some molecules and their measured log10 of IC50.
Base-10 log of IC50, unit pM.

Example results:
INSERT INTO results (molecule, assay_result) VALUES
  ('C[C@@H]1[C@@H](C)CCC[C@](O)(CC[S@@+](C)[O-])[C@@H]2CC[C@H]2CN2C[C@@]3(CCCc4cc(Cl)ccc43)COc3ccc(cc32)C(=O)NS1(=O)=O [Example 100330]', 1.92),
  ('C[C@@H]1[C@@H](C)CCC[C@@](O)(Cc2ccccn2)[C@@H]2CC[C@H]2CN2C[C@@]3(CCCc4cc(Cl)ccc43)COc3ccc(cc32)C(=O)NS1(=O)=O [Example 100105]', 3.77),
  ('CO[C@]1(CCN(C)C)/C=C/C[C@H](C)[C@@H](C)S(=O)(=O)NC(=O)c2ccc3c(c2)N(C[C@@H]2CC[C@H]21)C[C@@]1(CCCc2cc(Cl)ccc21)CO3 [Example 100381]', 2.52),
  ('CO[C@]1(CC(=O)O)/C=C/C[C@H](C)[C@@H](C)S(=O)(=O)NC(=O)c2ccc3c(c2)N(C[C@@H]2CC[C@H]21)C[C@@]1(CCCc2cc(Cl)ccc21)CO3 [Example 100306]', 2.09);

Next molecule, log10 of IC50 to be filled in.
// query Looking for the measured log10 of IC50 of C[C@@H]1[C@@H](C)CCC[C@](O)(CC(=S)N(C)C)[C@@H]2CC[C@H]2CN2C[C@@]3(CCCc4cc(Cl)ccc43)COc3ccc(cc32)C(=O)NS1(=O)=O (single isomer, unassigned) [Example 100172] , can you help?
// result 3.11

###

# system-under-test: recombinant human Mcl-1 (residues 171-327) / Bim interaction (Homo sapiens (Human))
# protocol: biochemical
# Type: binding
# run-conditions: TR-FRET, Mcl-1(171-327) / biotin-Bim (51-76); read-out: Mcl-1 HTRF IC50
measured-endpoint: pIC50
In plain terms, pIC50 is the concentration in mol/L turned into minus its base-10 logarithm.

Example results:
INSERT INTO measurements (molecule, system_under_test, measured_endpoint, assay_result) VALUES
  ('CC#C[C@@]1(O)CCCCCS(=O)(=O)NC(=O)c2ccc3c(c2)N(C[C@@H]2CC[C@H]21)C[C@@]1(CCCc2cc(Cl)ccc21)CO3 [Example 100026]', 'recombinant human Mcl-1 (residues 171-327) / Bim interaction (Homo sapiens (Human))', 'pIC50', 8.67),
  ('CO[C@@]1(CCN2CCN3CCOC[C@@H]3C2)/C=C/C[C@H](C)[C@@H](C)S(=O)(=O)NC(=O)c2ccc3c(c2)N(C[C@@H]2CC[C@H]21)C[C@@]1(CCCc2cc(Cl)ccc21)CO3 [Example 100429]', 'recombinant human Mcl-1 (residues 171-327) / Bim interaction (Homo sapiens (Human))', 'pIC50', 9.75),
  ('C[C@H](C(=O)O)[C@@]1(O)/C=C/C[C@H](C)[C@@H](C)S(=O)(=O)NC(=O)c2ccc3c(c2)N(C[C@@H]2CC[C@H]21)C[C@@]1(CCCc2cc(Cl)ccc21)CO3 (single isomer, unassigned) [Example 100121]', 'recombinant human Mcl-1 (residues 171-327) / Bim interaction (Homo sapiens (Human))', 'pIC50', 10.25),
  ('C[C@@H]1[C@@H](C)C/C=C/[C@@]2(COCCO2)[C@@H]2CC[C@H]2CN2C[C@@]3(CCCc4cc(Cl)ccc43)COc3ccc(cc32)C(=O)NS1(=O)=O [Example 100264]', 'recombinant human Mcl-1 (residues 171-327) / Bim interaction (Homo sapiens (Human))', 'pIC50', 9.42),
  ('CO[C@]1(C)CCC[C@H](C)[C@@H](C)S(=O)(=O)NC(=O)c2ccc3c(c2)N(C[C@@H]2CC[C@H]21)C[C@@]1(CCCc2cc(Cl)ccc21)CO3 (single isomer, unassigned) [Example 100212]', 'recombinant human Mcl-1 (residues 171-327) / Bim interaction (Homo sapiens (Human))', 'pIC50', 9.05),
  ('C[C@@H]1[C@@H](C)CCC[C@](O)(CC(=O)N(C)C(C)(C)C)[C@@H]2CC[C@H]2CN2C[C@@]3(CCCc4cc(Cl)ccc43)COc3ccc(cc32)C(=O)NS1(=O)=O (single isomer, unassigned) [Example 100142]', 'recombinant human Mcl-1 (residues 171-327) / Bim interaction (Homo sapiens (Human))', 'pIC50', 9.14),
  ('COCCN(C)C(=O)C[C@]1(O)CCC[C@H](C)[C@@H](C)S(=O)(=O)NC(=O)c2ccc3c(c2)N(C[C@@H]2CC[C@H]21)C[C@@]1(CCCc2cc(Cl)ccc21)CO3 [Example 100140]', 'recombinant human Mcl-1 (residues 171-327) / Bim interaction (Homo sapiens (Human))', 'pIC50', 9.31),
  ('CO[C@@]1(C#CCCN2CCOCC2)/C=C/C[C@H](C)[C@@H](C)S(=O)(=O)NC(=O)c2ccc3c(c2)N(C[C@@H]2CC[C@H]21)C[C@@]1(CCCc2cc(Cl)ccc21)CO3 (single isomer, unassigned) [Example 100012]', 'recombinant human Mcl-1 (residues 171-327) / Bim interaction (Homo sapiens (Human))', 'pIC50', 9.56),
  ('CO[C@@]1(C[C@@H](C)O)/C=C/C[C@H](C)[C@@H](C)S(=O)(=O)NC(=O)c2ccc3c(c2)N(C[C@@H]2CC[C@H]21)C[C@@]1(CCCc2cc(Cl)ccc21)CO3 [Example 100436]', 'recombinant human Mcl-1 (residues 171-327) / Bim interaction (Homo sapiens (Human))', 'pIC50', 10.12);

Next molecule, pIC50 to be filled in.
// query Looking for the measured pIC50 of C[C@@H]1[C@@H](C)C/C=C/[C@@](O)(C#CCCCN2CCOCC2)[C@@H]2CC[C@H]2CN2C[C@@]3(CCCc4cc(Cl)ccc43)COc3ccc(cc32)C(=O)NS1(=O)=O [Example 100493] , can you help?
// result 9.49
